Parameter: cytotoxicity at 70.5 h. Scope: all listed entries.
assay: Human HepG2 cell viability assay in 384 well format; format: toxicity, cell-based; design: dose 125 nL, time 70.5 hour; concentration not given beside the values; conditions: HepG2 cells, read-out: Inhibition
Answer in %, number only, no unit symbol.

Consider the following illustrative entries.
[
  {
    "compound": "CC(C)Cc1ncc2c(n1)CN(C(=O)Cn1c(=O)oc3ccccc31)C2",
    "uom": "%",
    "cytotoxicity at 70.5 h": -14.5
  },
  {
    "compound": "COCCNc1nc(-c2ccc(S(=O)(=O)N3CCCCC3)cc2)cs1",
    "uom": "%",
    "cytotoxicity at 70.5 h": 0.097
  }
]

Query compound follows.
Answer with the recorded cytotoxicity at 70.5 h of CCOCC1CN(C(=O)c2cccs2)Cc2cnn(CC3CC3)c21 (stereo unspecified) only.
-6.77
